# credit: ChEMBL document CHEMBL5058577

- Tested on: U2OS
- PROTOCOL_DESCRIPTION: Multiplex assay against U2OS
- Type: toxicity, cell-based
- EXPERIMENTAL_CONTEXT: human, 48 h, 10 µM, compound concentration 10 uM, replicate 2
VALUE_KIND: Population Fragmented Nuclei (%)

>  <COMPOUND>
COc1c(Nc2ccc(S(C)(=O)=O)nc2C)ncnc1OC1CCN(C(=O)OC(C)C)CC1 [ADP-597]

>  <VALUE_KIND>
Population Fragmented Nuclei (%)

>  <TEST_VALUE>
10%

$$$$
>  <COMPOUND>
CSc1nc(NC2CCCC2)c([N+](=O)[O-])c(NC2CCCC2)n1 [GS-39783]

>  <VALUE_KIND>
Population Fragmented Nuclei (%)

>  <TEST_VALUE>
12%

$$$$
>  <COMPOUND>
Cl.Cl.OCCOCCN1CCN(C(c2ccccc2)c2ccc(Cl)cc2)CC1 (configuration not stated) [HYDROXYZINE HYDROCHLORIDE]

>  <VALUE_KIND>
Population Fragmented Nuclei (%)

>  <TEST_VALUE>
27%

$$$$
>  <COMPOUND>
O=c1ccc2ccc(OCCCCN3CCN(c4cccc5sccc45)CC3)cc2[nH]1 [BREXPIPRAZOLE]

>  <VALUE_KIND>
Population Fragmented Nuclei (%)

>  <TEST_VALUE>
29%

$$$$
>  <COMPOUND>
COc1cc(C(=O)N2CC[C@@H](O)[C@@H](N)C2)cc2nc(-c3cc4ccccc4n3CC3CC3)n(C)c12.Cl

>  <VALUE_KIND>
Population Fragmented Nuclei (%)

>  <TEST_VALUE>
30%

$$$$
>  <COMPOUND>
CN1C[C@H](C(=O)N[C@]2(C)O[C@@]3(O)[C@@H]4CCCN4C(=O)[C@H](Cc4ccccc4)N3C2=O)C[C@@H]2c3cccc4[nH]cc(c34)C[C@H]21.CS(=O)(=O)O [DIHYDROERGOTAMINE MESYLATE]

>  <VALUE_KIND>
Population Fragmented Nuclei (%)

>  <TEST_VALUE>
19%

$$$$
>  <COMPOUND>
CCc1nn2c(C)cc(C)nc2c1Cc1ccc(-c2nnc(C3CCNCC3)o2)cc1

>  <VALUE_KIND>
Population Fragmented Nuclei (%)

>  <TEST_VALUE>
12%

$$$$
